# system_under_test: human metastin receptor hOT7T175 (Homo sapiens, UniProt Q969F8, L364H)
# Construct: encoding the entire length of human metastin receptor hOT7T175; expressed in transfected cells; host or cells: CHO/dhFr- cells (ATCC #CRL-9096) stably transfected with pAKKO-hOT7T175; clone h175-16 was used as whole cells for FLIPR
# Sequence (Q969F8 whole entry L364H): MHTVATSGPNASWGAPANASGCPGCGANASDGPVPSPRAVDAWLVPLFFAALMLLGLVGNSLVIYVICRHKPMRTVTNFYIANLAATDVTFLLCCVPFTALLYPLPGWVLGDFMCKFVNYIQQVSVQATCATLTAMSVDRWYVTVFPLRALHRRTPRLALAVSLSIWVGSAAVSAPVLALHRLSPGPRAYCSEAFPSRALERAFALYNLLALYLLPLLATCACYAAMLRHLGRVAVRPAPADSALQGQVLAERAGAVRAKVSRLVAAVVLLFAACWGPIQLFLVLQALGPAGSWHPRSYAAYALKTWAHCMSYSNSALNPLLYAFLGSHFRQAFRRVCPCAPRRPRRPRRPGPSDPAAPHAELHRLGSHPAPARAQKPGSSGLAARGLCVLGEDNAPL
# assay_notes: binding inhibiting activity: 125I-metastin (40-54) binding to cell membrane fraction of h175 KB34 cells
# measurement_conditions: room temperature 60 minutes, read-out: binding inhibiting activity, represented by the IC50 value
measure_name: IC50

What value of IC50 has been recorded for this entry: COc1ccccc1C(=O)Nc1nc(-c2ccc(F)cc2O)cc(-c2cccc(C(=O)NCCCn3ccnc3)c2)c1C#N.Cl [Example 245, hydrochloride] ≤ 10 µM

Next record, please: Cl.N#Cc1c(-c2cccc(N3CCCNCC3)c2)cc(-c2ccc(F)cc2O)nc1NC(=O)c1ccco1 [Example 326, hydrochloride] ≤ 10 µM

Next record, please: CC(C)NC(C)CC(=O)Nc1cccc(-c2cc(-c3ccc(F)cc3O)nc(NC(=O)c3ccco3)c2C#N)c1.Cl (stereo not drawn) [Example 321, hydrochloride] ≤ 10 µM

====

Counter-ions that a name gives are not always drawn.
Kindly state melting point for each of the entries shown.

What value of melting point has been recorded for this entry: CCCC(CC(=O)Nc1cccc(-c2cc(-c3ccc(F)cc3O)nc(NC(=O)c3ccco3)c2C#N)c1)N(CC)CC (centres unmarked) (as salt: hydrochloride) 195 to 197 °C

Next record, please: N#Cc1c(-c2cccc(NC(=O)[C@@H](N)CN)c2)cc(-c2ccc(F)cc2O)nc1NC(=O)c1ccco1 (as salt: hydrochloride) [Example 302, dihydrochloride] 231 to 240 °C

Next record, please: Nc1cccc(-c2cc(NC(=O)c3cccs3)nc(-c3ccccc3O)c2)c1 161 to 162 °C

Next record, please: CN(C)CCNC(=O)c1cccc(-c2cc(-c3ccc(F)cc3O)nc(NC(=O)c3ccco3)c2C#N)c1.Cl 200 to 204 °C

Next record, please: COc1ccccc1C(=O)Nc1nc(-c2ccc(Cl)cc2O)cc(-c2cccc(NC(=O)CCN)c2)c1C#N.Cl 233 to 238 °C

Next record, please: Cl.N#Cc1c(-c2cccc(NC(=O)CCN)c2)cc(-c2ccc(Br)cc2O)nc1NC(=O)c1cccs1 203 to 211 °C

Next record, please: C[C@H](N)C(=O)Nc1cccc(-c2cc(-c3ccc(Cl)cc3O)nc(NC(=O)c3ccco3)c2C#N)c1.Cl 207 to 210 °C

Next record, please: Cl.N#Cc1c(-c2cccc(NC(=O)[C@H]3CCCN3)c2)cc(-c2ccc(Cl)cc2O)nc1NC(=O)c1ccco1 208 to 213 °C

Next record, please: COc1ccccc1C(=O)Nc1nc(-c2ccc(Cl)cc2O)cc(-c2cccc(C(=O)NCCN)c2)c1C#N.Cl 227 to 229 °C

Next record, please: CC(N)CC(=O)Nc1cccc(-c2cc(-c3ccc(F)cc3O)nc(NC(=O)c3ccco3)c2C#N)c1.Cl (centres unmarked) 213 to 215 °C

Next record, please: Cl.N#Cc1c(-c2cccc(C(=O)NCCN)c2)cc(-c2ccc(F)cc2O)nc1NC(=O)c1cccs1 228 to 229 °C

Next record, please: CC(C)(C)OC(=O)c1c(-c2cccc(NC(=O)CCN)c2)cc(-c2ccccc2O)nc1NC(=O)c1ccccc1 247 to 249 °C

Next record, please: Cl.N#Cc1c(-c2cccc(NC(=O)[C@H]3CCCN3)c2)cc(-c2ccc(F)cc2O)nc1NC(=O)c1nccs1 241 to 244 °C

Next record, please: N#Cc1c(-c2cccc(NC(=O)CCN)c2)cc(-c2cc(Cl)ccc2O)nc1NC(=O)c1cccs1 (as salt: trifluoroacetate) 197 to 204 °C

====

Structures can show the parent of a compound that is named as a salt.
measure_name: melting point

What value of melting point has been recorded for this entry: CCC(N)CC(=O)Nc1cccc(-c2cc(-c3ccc(F)cc3O)nc(NC(=O)c3ccco3)c2C#N)c1.Cl (stereo not drawn) 212 to 214 °C

Next record, please: CCN(CC)CCNC(=O)c1cccc(-c2cc(-c3ccc(F)cc3O)nc(NC(=O)c3ccco3)c2C#N)c1.Cl 200 to 204 °C

Next record, please: N#Cc1c(-c2cccc(NC(=O)CCN)c2)cc(-c2ccccc2O)nc1NC(=O)c1ccccc1 (as salt: trifluoroacetate) 225 to 226 °C

Next record, please: CC(C)(CN)CNC(=O)c1cccc(-c2cc(-c3ccc(Cl)cc3O)nc(NC(=O)c3ccco3)c2C#N)c1.Cl 241 to 244 °C

Next record, please: N#Cc1c(-c2cccc(NC(=O)[C@H](N)Cc3cnc[nH]3)c2)cc(-c2ccc(Cl)cc2O)nc1NC(=O)c1ccco1 (as salt: hydrochloride) [Example 253, dihydrochloride] 200 to 206 °C

Next record, please: Cl.N#Cc1c(-c2cccc(C(=O)N3CCNCC3)c2)cc(-c2ccccc2O)nc1NC(=O)c1cccs1 232 to 236 °C

Next record, please: CCN(CC)CCN(CC)c1cccc(-c2cc(-c3ccc(F)cc3O)nc(NC(=O)c3ccco3)c2C#N)c1 (as salt: hydrochloride) [Example 304, dihydrochloride] 138 to 144 °C

Next record, please: N#Cc1c(-c2cccc(C(=O)NCCO)c2)cc(-c2ccccc2O)nc1NC(=O)c1cccs1 218 to 219 °C

Next record, please: COc1ccccc1C(=O)Nc1nc(-c2ccc(Cl)cc2O)cc(-c2cccc(C(=O)NCCCn3ccnc3)c2)c1C#N.Cl 234 to 237 °C

Next record, please: N#Cc1c(-c2cccc(NC(=O)CCN)c2)cc(-c2ccc(Cl)cc2O)nc1NC(=O)c1ccccc1 (as salt: trifluoroacetate) 160 to 167 °C

Next record, please: Cl.N#Cc1c(-c2cccc(CNC(=O)CN)c2)cc(-c2ccccc2O)nc1NC(=O)c1cccs1 181 to 186 °C

Next record, please: CN1CCN(Cc2cccc(-c3cc(-c4ccc(F)cc4O)nc(NC(=O)c4ccco4)c3C#N)c2)CC1 (as salt: hydrochloride) [Example 333, dihydrochloride] 205 to 210 °C

Next record, please: CCN(CC)[C@@H](COC)C(=O)Nc1cccc(-c2cc(-c3ccc(F)cc3O)nc(NC(=O)c3ccco3)c2C#N)c1.Cl 192 to 196 °C

Next record, please: Cl.N#Cc1c(-c2cccc(NC(=O)[C@H]3CCCN3)c2)cc(-c2ccc(Cl)cc2O)nc1NC(=O)c1ccno1 ≥ 250 °C (dec.)

Next record, please: Cl.N#Cc1c(-c2cccc(NC(=O)[C@@H]3CCCN3)c2)cc(-c2ccccc2O)nc1NC(=O)c1cccs1 210 to 218 °C

Next record, please: CN1CCN(c2cccc(-c3cc(-c4ccc(F)cc4O)nc(NC(=O)c4ccco4)c3C#N)c2)CC1.Cl 254 to 259 °C

Next record, please: Cl.N#Cc1c(-c2cccc(C(=O)NCCCn3ccnc3)c2)cc(-c2ccc(F)cc2O)nc1NC(=O)c1cccs1 195 to 196 °C

Next record, please: CC(C)(C)OC(=O)NCCC(=O)Nc1cccc(-c2cc(-c3ccccc3O)nc(NC(=O)c3ccccc3)c2C#N)c1 220 to 221 °C

Next record, please: CCCNC(=O)c1cccc(-c2cc(-c3ccccc3O)nc(NC(=O)c3cccs3)c2C#N)c1 245 to 246 °C

Next record, please: Cl.N#Cc1c(-c2cccc(N3CCCNCC3)c2)cc(-c2ccc(F)cc2O)nc1NC(=O)c1ccco1 254 to 259 °C

Next record, please: CNc1cccc(-c2cc(-c3ccccc3O)nc(NC(=O)c3cccs3)c2C#N)c1 227 to 230 °C

Next record, please: CCN(CC)C(C)CC(=O)Nc1cccc(-c2cc(-c3ccc(F)cc3O)nc(NC(=O)c3ccco3)c2C#N)c1.Cl (stereo not drawn) 193 to 195 °C

Next record, please: COc1ccc(-c2cc(-c3cccc(NC(=O)CCN)c3)c(C#N)c(NC(=O)c3ccccc3)n2)c(O)c1 (as salt: trifluoroacetate) 164 to 170 °C

Next record, please: COC[C@H](N)C(=O)Nc1cccc(-c2cc(-c3ccc(F)cc3O)nc(NC(=O)c3ccco3)c2C#N)c1.Cl 224 to 230 °C

Next record, please: CCCN(CCC)C(C)CC(=O)Nc1cccc(-c2cc(-c3ccc(F)cc3O)nc(NC(=O)c3ccco3)c2C#N)c1.Cl (stereo not drawn) 198 to 200 °C

Next record, please: C[C@@H](N)CC(=O)Nc1cccc(-c2cc(-c3ccc(Cl)cc3O)nc(NC(=O)c3nccs3)c2C#N)c1.Cl 218 to 221 °C

Next record, please: Cl.N#Cc1c(-c2cccc(NC(=O)CN)c2)cc(-c2ccc(F)cc2O)nc1NC(=O)c1ccco1 229 to 236 °C

====

Counter-ions that a name gives are not always drawn.
measure_name: melting point

What value of melting point has been recorded for this entry: N#Cc1c(-c2cccc(CN)c2)cc(-c2ccccc2O)nc1NC(=O)c1cccs1 203 to 205 °C

Next record, please: N#Cc1c(-c2cccc(NC(=O)CN)c2)cc(-c2ccccc2O)nc1NC(=O)c1cccs1 (as salt: hydrochloride) [Example 12, dihydrochloride] 210 to 217 °C

Next record, please: Cl.N#Cc1c(-c2cccc(C(=O)NCC3CCCCN3)c2)cc(-c2ccc(Cl)cc2O)nc1NC(=O)c1ccco1 (stereo not shown) 222 to 226 °C

Next record, please: COc1ccc(C(=O)Nc2nc(-c3ccc(Cl)cc3O)cc(-c3cccc(NC(=O)CCN)c3)c2C#N)cc1.Cl 193 to 197 °C

Next record, please: Cc1ccc(C(=O)Nc2nc(-c3ccc(Cl)cc3O)cc(-c3cccc(NC(=O)CC(C)N)c3)c2C#N)o1.Cl (stereo not shown) 206 to 212 °C

Next record, please: N#Cc1c(-c2ccccc2C(=O)NCCN)cc(-c2ccccc2O)nc1NC(=O)c1cccs1 (as salt: hydrochloride) [Example 24, dihydrochloride] 196 to 201 °C

Next record, please: CN(C)C[C@@H](C(=O)Nc1cccc(-c2cc(-c3ccc(F)cc3O)nc(NC(=O)c3ccco3)c2C#N)c1)N(C)C (as salt: hydrochloride) [Example 305, dihydrochloride] 195 to 200 °C
